Where do these numbers come from? They come from paper PMC3847553.

# TARGET OR TEST SYSTEM: mouse OX2R (Mus musculus, UniProt P58308)
# Construct: expressed in transfected cells; host or cells: HEK; cells from GNF, San Diego
# Sequence (P58308 whole entry): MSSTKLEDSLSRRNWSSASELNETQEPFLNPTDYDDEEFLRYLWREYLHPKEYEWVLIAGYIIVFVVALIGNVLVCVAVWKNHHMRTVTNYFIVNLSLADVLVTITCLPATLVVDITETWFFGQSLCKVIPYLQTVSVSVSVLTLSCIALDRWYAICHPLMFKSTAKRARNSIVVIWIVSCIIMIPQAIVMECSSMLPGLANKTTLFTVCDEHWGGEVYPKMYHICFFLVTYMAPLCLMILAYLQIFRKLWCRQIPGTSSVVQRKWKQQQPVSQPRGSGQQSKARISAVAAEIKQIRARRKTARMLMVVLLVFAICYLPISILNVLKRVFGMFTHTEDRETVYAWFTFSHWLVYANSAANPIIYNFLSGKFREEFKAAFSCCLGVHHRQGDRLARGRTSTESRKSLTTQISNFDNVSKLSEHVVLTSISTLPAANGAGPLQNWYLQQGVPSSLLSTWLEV
# METHOD DESCRIPTION: FLIPR orexin A-stimulated calcium accumulation, mouse OX2R
# Type: cell-based
# SETTINGS: pKi, HEK cells, antagonist incubation 2 h
METRIC NAME: Ki (nM)
One number for each entry, in nM.

QUERY: Which Ki value is on record for Cc1ccc(-n2nccn2)c(C(=O)N2CCN(c3nc4cc(Cl)ccc4o3)CC[C@H]2C)c1 ?
RESULT: 5.75

====

Record form. Attribute: Ki. Fill in for each entry.
# TARGET OR TEST SYSTEM: rat OX2R (Rattus norvegicus)
# Sequence (P56719 whole entry): as the sequence (P58308 whole entry) above, with S11P, C193R, H213R, I240V, Q269P, H387R, V424A counted along it
# METHOD DESCRIPTION: FLIPR orexin A-stimulated calcium accumulation, rat OX2R
# Type: cell-based
# SETTINGS: HEK cells, antagonist incubation 2 h, read-out: pKi (converted)
Answers are plain numbers, in nM.

Field: example entries. Status: answers known.
{"CPD SMILES": "CNC(=O)[C@@H](c1ccccc1)N1CCc2cc(OC)c(OC)cc2[C@@H]1CCc1ccc(C(F)(F)F)cc1", "TARGET OR TEST SYSTEM": "rat OX2R (Rattus norvegicus)", "METRIC NAME": "Ki", "UNIT": "nM", "OBS VALUE": 1.02}
{"CPD SMILES": "Cc1nc(C(=O)N2CCCC[C@H]2CNC(=O)c2cccc3occc23)c(-c2ccc(F)cc2)s1", "TARGET OR TEST SYSTEM": "rat OX2R (Rattus norvegicus)", "METRIC NAME": "Ki", "UNIT": "nM", "OBS VALUE": 0.155}

Value sought for every listed molecule: Ki.
1. COc1ccnc(N2CCC3(CCCN(Cc4c[nH]c5ccccc45)C3=O)CC2)n1
2. Cc1ccc(-c2ncccn2)c(C(=O)N2C[C@H](COc3ccc(F)cn3)CC[C@H]2C)c1

RESULT:
1. 24
2. 0.251
